Target: human FVIIa (Homo sapiens, UniProt P08709)
Sequence (P08709 213-466 limits assumed): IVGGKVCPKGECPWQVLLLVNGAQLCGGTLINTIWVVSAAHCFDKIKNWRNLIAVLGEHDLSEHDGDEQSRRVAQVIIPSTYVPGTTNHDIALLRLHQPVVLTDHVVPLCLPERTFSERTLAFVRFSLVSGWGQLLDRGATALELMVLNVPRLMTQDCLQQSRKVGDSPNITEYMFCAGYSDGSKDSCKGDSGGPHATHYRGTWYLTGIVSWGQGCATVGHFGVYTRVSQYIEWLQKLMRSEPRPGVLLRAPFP
Sequence (P08709 61-212 partner limits assumed): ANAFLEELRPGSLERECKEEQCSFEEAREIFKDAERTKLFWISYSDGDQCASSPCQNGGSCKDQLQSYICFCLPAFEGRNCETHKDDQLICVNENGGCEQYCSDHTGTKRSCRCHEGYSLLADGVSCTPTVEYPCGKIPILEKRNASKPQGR
ATTRIBUTE MEASURED: pIC50
Answers are plain numbers, as −log10 of the molar value.

Ask: Any idea what pIC50 came out for Cc1cc(Oc2nc(Oc3cccc(C(=N)N)c3)c(F)c(NC(C)CCc3ccccc3)c2F)c(C(=O)O)cc1N(C)C (stereo not shown) on human FVIIa (Homo sapiens, UniProt P08709)?
Result: 7.82

---

target: thrombin (Homo sapiens); assay: Inhibition of thrombin (stated potency); format: biochemical; details: read-out: Ki against thrombin
ATTRIBUTE MEASURED: Ki (nM)
Give bare numbers, in nM.

Ask: Any idea what Ki came out for N=C(NN)c1ccc(C[C@H](NS(=O)(=O)c2ccc3ccccc3c2)C(=O)NCC2CCCC2)cc1 on thrombin (Homo sapiens)?
Result: 0.38
